# systemName: Muscarinic acetylcholine receptor
# experimentalDetails: Inhibition of radioligand [3H]QNB binding to muscarinic acetylcholine receptor in the rat forebrain in the presence of zinc
Let's look at some compounds and their measured IC50.

[
  {
    "compound": "CC(=O)N(c1ccncc1)n1cccc1",
    "unitString": "µM",
    "valueOperator": ">",
    "IC50": 1000
  },
  {
    "compound": "CCCN(c1ccncc1)n1cccc1Cl",
    "unitString": "µM",
    "valueOperator": "=",
    "IC50": 8.6
  },
  {
    "compound": "CN(c1ccncc1)n1cccc1",
    "unitString": "µM",
    "valueOperator": "=",
    "IC50": 70
  },
  {
    "compound": "C=CCN(c1ccncc1)n1cccc1",
    "unitString": "µM",
    "valueOperator": "=",
    "IC50": 27
  },
  {
    "compound": "CCCN(c1ccncc1)n1ccc(C=O)c1",
    "unitString": "µM",
    "valueOperator": "=",
    "IC50": 138
  },
  {
    "compound": "CCc1cccn1N(C)c1ccncc1",
    "unitString": "µM",
    "valueOperator": "=",
    "IC50": 22
  },
  {
    "compound": "CCN(c1ccncc1)n1cccc1",
    "unitString": "µM",
    "valueOperator": "=",
    "IC50": 120
  },
  {
    "compound": "CN(c1ccncc1)n1cccc1CO",
    "unitString": "µM",
    "valueOperator": "=",
    "IC50": 39
  },
  {
    "compound": "CN(c1ccncc1)n1cccc1C#N",
    "unitString": "µM",
    "valueOperator": "=",
    "IC50": 295
  },
  {
    "compound": "CCCN(c1ccncc1)n1cccc1C=O",
    "unitString": "µM",
    "valueOperator": "=",
    "IC50": 51
  },
  {
    "compound": "CC(O)c1cccn1N(C)c1ccncc1 (configuration not stated)",
    "unitString": "µM",
    "valueOperator": "=",
    "IC50": 173
  },
  {
    "compound": "CN(c1ccncc1)n1cccc1/C=C/c1ccccc1",
    "unitString": "µM",
    "valueOperator": "=",
    "IC50": 17
  },
  {
    "compound": "CN(c1ccncc1)n1cccc1C=O",
    "unitString": "µM",
    "valueOperator": "=",
    "IC50": 52
  },
  {
    "compound": "CCN(c1ccncc1)n1cccc1Cl",
    "unitString": "µM",
    "valueOperator": "=",
    "IC50": 33
  },
  {
    "compound": "c1ccc(CN(c2ccncc2)n2cccc2)cc1",
    "unitString": "µM",
    "valueOperator": "=",
    "IC50": 13.5
  },
  {
    "compound": "CN(c1ccncc1)n1cccc1Cl",
    "unitString": "µM",
    "valueOperator": "=",
    "IC50": 43
  },
  {
    "compound": "CN(c1ccncc1)n1cccc1CCc1ccccc1",
    "unitString": "µM",
    "valueOperator": "=",
    "IC50": 8.1
  },
  {
    "compound": "c1ccn(Nc2ccncc2)c1",
    "unitString": "µM",
    "valueOperator": "=",
    "IC50": 184
  },
  {
    "compound": "C=Cc1cccn1N(C)c1ccncc1",
    "unitString": "µM",
    "valueOperator": "=",
    "IC50": 18
  },
  {
    "compound": "CN(c1ccncc1)n1ccc(C=O)c1",
    "unitString": "µM",
    "valueOperator": "=",
    "IC50": 185
  },
  {
    "compound": "CN(C)CCC=C1c2ccccc2CCc2ccccc21 [AMITRIPTYLINE]",
    "unitString": "µM",
    "valueOperator": "=",
    "IC50": 0.3
  },
  {
    "compound": "C#CCN(c1ccncc1)n1cccc1",
    "unitString": "µM",
    "valueOperator": "=",
    "IC50": 76.4
  },
  {
    "compound": "Clc1cccn1Nc1ccncc1",
    "unitString": "µM",
    "valueOperator": "=",
    "IC50": 76.2
  },
  {
    "compound": "CCCN(c1ccncc1)n1cccc1",
    "unitString": "µM",
    "valueOperator": "=",
    "IC50": 21.5
  },
  {
    "compound": "CCCCN(c1ccncc1)n1cccc1",
    "unitString": "µM",
    "valueOperator": "=",
    "IC50": 12.5
  },
  {
    "compound": "O=Cc1cccn1Nc1ccncc1",
    "unitString": "µM",
    "valueOperator": "=",
    "IC50": 721
  },
  {
    "compound": "CC(O)c1ccn(N(C)c2ccncc2)c1 (configuration not stated)",
    "unitString": "µM",
    "valueOperator": "=",
    "IC50": 24
  }
]

Hello, the source for this data is ChEMBL document CHEMBL1129671, in case you need it.
